Cited source for all entries: patent US20240279335A1

target: T1, CD28-Fc (Homo sapiens, UniProt P10747); test: Biacore multi-cycle kinetics on immobilized CD28-Fc; assay type: binding; details: Table 3, monomeric VHH clones, affinity constants to CD28-Fc
T1 construct: Fc
measured-parameter: ka (M⁻¹ s⁻¹)
Numeric answer only, unit M⁻¹ s⁻¹ assumed.

Reference set (2 entries):
- molecule: "VHH 12A09: affinity matured variant of VHH 2A1, SEQ ID NO: 32 (protein) VHH: EVQLVESGGGLVQAGESLRLSCAASGSIASIKTMAWYRQAPGSQRELVTAIASDNRKYYADSVKGRFTISRDNAKTTVYLQMNSLRPEDTAVYYCVVDVTKEDYWYWGQGTQVTVSS"
  recorded-value: 83400
- molecule: "VHH 9A7 (VHH, also called 9A07) VHH: EVQLVESGGGLVQAGESLRLSCAASGSIASINSMGWYRQAPGSQRELVAAISDRSEKYYADSVKGRFTISRDNAKTTVYLQMNSLRPEDTAVYYCVVDHHHSDWWTWGQGTQVTVSS"
  recorded-value: 51500

q: Name the recorded ka for VHH 9B3 (VHH, also called 9B03) VHH: EVQLVESGGGLVQAGESLRLSCAASGSIASIRTMAWYRQAPGSQRELVAAISSGREVYYADSVKGRFTISRDNAKTTVYLQMNSLRPEDTAVYYCVVDMYWQDYWWWGQGTQVTVSS .
a: 112000

q: Entry VHH 10E1 (VHH, also called 10E01) VHH: EVQLVESGGGLVQAGESLRLSCAASGSIASIKTMAWYRQAPGSQRELVAAINYIKEIYYADSVKGRFTISRDNAKTTVYLQMNSLRPEDTAVYYCVVDVTKEDYWYWGQGTQVTVSS please
a: 44400
